# Experimental Target: T1, RSV prefusion F (preF), subtype B (respiratory syncytial virus subtype B)
# T1 construct: also called Prefusion subtype B
# Experimental Details: BLI, IgG
pKd: −log10 of the molar value.

Binder | pKd
ADI-25472 (antibody, V domains shown, full-length IgG) VH: EVQLVESGGGLVKPGGSLRLSCAASGFTFSSYSMNWVRQAPGKGLEWVSSISSSSSYIYYADSVKGRFTISRDNAKNSLYLQMNSLRAEDTAVYYCARDDSSSWYYFDYWGQGTLVTVSS VL: QSVLTQPPSVSGAPGQRVTISCTGSSSNIGAGYDVHWYQQLPGTAPKLLIYGNSNRPSGVPDRFSGSKSGTSASLAITGLQAEDEADYYCQSYDSSLSGYVFGTGTKVTVL | 7.42
ADI-24859 (antibody, V domains shown, full-length IgG; also called Ab 419) VH: EVQLLESGGGLVKPGGSLRLSCAASGFTFSSYSMNWVRQAPGKGLEWVSSISSSSSYIYYADSVKGRFTISRDNAKNSLYLQMNSLRAEDTAVYYCARDGSPINWVSPFPFDYWGQGTLVTVSS VL: QPVLTQPPSVSGAPGQRVTISCTGSSSNIGAGYDVHWYQQLPGTAPKLLIYGNSNRPSGVPDRFSGSKSGTSASLAITGLQAEDEADYYCQSYDSSLSGSVFGGGTQLTVL | 8.31
ADI-25565 (antibody, V domains shown, full-length IgG) VH: EVQLVESGGGLVKPGGSLRLSCAASGFTFSSYSMNWVRQAPGKGLEWVSSISSSSSYIYYADSVKGRFTISRDNAKNSLYLQMNSLRAEDTAVYYCARIRFDYGSGSYAFDIWGQGTMVTVSS VL: QPVLTQPPSVSGAPGQRVTISCTGSSSNIGAGYDVHWYQQLPGTAPKLLIYGNSNRPSGVPDRFSGSKSGTSASLAITGLQAEDEADYYCQSYDSSLSGSVFGGGTKLTVL | 7.45
ADI-24819 (antibody, V domains shown, full-length IgG) VH: EVQLLESGGGLVKPGGSLRLSCAASGFTFSSYSMNWVRQAPGKGLEWVSSISSSSSYIYYADSVKGRFTISRDNAKNSLYLQMNSLRAEDTAVYYCARESGSGWYYFDYWGQGTLVTVSS VL: QSVLTQPPSVSGAPGQRVTISCTGSSSNIGAGYDVHWYQQLPGTAPKLLIYGNSNRPSGVPDRFSGSKSGTSASLAITGLQAEDEADYYCQSYDGSLSGVFGGGTKVTVL | 8.03
ADI-24848 (antibody, V domains shown, full-length IgG) VH: EVQLVESGGGLVKPGGSLRLSCAASGFTFSSYSMNWVRQAPGKGLEWVSSISSSSSYIYYADSVKGRFTISRDNAKNSLYLQMNSLRAEDTAVYYCARDTVVAGIYFDYWGQGTLVTVSS VL: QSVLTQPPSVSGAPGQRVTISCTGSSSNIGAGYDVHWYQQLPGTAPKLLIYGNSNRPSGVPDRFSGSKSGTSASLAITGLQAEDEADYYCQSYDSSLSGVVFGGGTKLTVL | 7.45
ADI-19424 (antibody, V domains shown, full-length IgG) VH: EVQLLESGGGLVQPGGSLRLSCAASGFTVSSNYMSWVRQAPGKGLEWVSDIYSGGRTDYADSVKGRFTISRDNSKNTLDLQMNSLRAEDTAVYYCARETLGMDHWYFDLWGRGTLVTVSS VL: QPGLTQPPSVSVAPGKTARITCGGNNIGSKSVHWYQQKPGQAPVLVVYDDSDRPSGIPERFSGSNSGNTATLTISRVEAGDEADYYCQVWDSTSDHPVFGGGTKLTVL | 8.77
ADI-14364 (antibody, V domains shown, full-length IgG; also called Ab 32) VH: QVQLVQSGAEVKKPGESLKISCKGSGYSFTSHWIGWVRQMPGKGLEWMGITDPGDSDTRYSPSFQGQVTISADKSISTAYLQWSSLKASDTAMYYCAREPRRWMTTETNGPYYFDNWGQGTLVTVSS VL: SYVLTQPPSVSVAPGKTARITCGGNNIGSKSVHWYQQKPGQAPVLVIYYDSDRPSGIPERFSGSNSGNTATLTISRVEAGDEADYYCQVWDSSSDNRVFGGGTKVTVL | 7.21
ADI-19428 (antibody, V domains shown, full-length IgG) VH: EVQLLESGGGLVKPGGSLRLSCAASGFTFSSYSMNWVRQAPGKGLEWVSSISSSSSYIYYADSVKGRFTISRDNAKNSLYLQMNSLRAEDTAVYYCARDSCSGGSCYSPRFDPWGQGTLVTVSS VL: QSVLTQPPSVSGAPGQRVTISCTGSSSNIGAGYDVHWYQQLPGTAPKLLIYGNSNRPSGVPDRFSGSKSGTSASLAITGLQAEDEADYYCQSYDSTVVFGGGTKLTVL | 7.78
ADI-14374 (antibody, V domains shown, full-length IgG; also called Ab 42) VH: QVQLVQSGGVVVQPGGSLRLSCAASGFNFDDFTMHWVRQAPGKGLEWVSLITWDGGITYYADSVKGRFTISRDNGKNSLYLRMNSLRTEDTALYYCAKDGDRYSGYAFLDYWGQGTLVTVSS VL: SYELTQPPSVSVAPGKTARLTCGGNNIGSESVHWYQQRPGQAPVLVSYYNGDRPSGIAERISASKSGNTATLTIYRVEAGDEADYYCQVWHSSSDHFVFGTGTQLTVL | 8.68
ADI-19459 (antibody, V domains shown, full-length IgG) VH: QVQLVESGGGLVQPGGSLRLSCAASGFTVSSNYMSWVRQAPGKGLEWVSVIYSGGSTYYADSVKGRFTISRDNSKNTLYLQMNSLRAEDTAVYYCAREALGMDHWYFDLWGRGTLVTVSS VL: SYELMQPPSVSVAPGKTARITCGGNNIGSKSVHWYQQKPGQAPVLVVYDDSDRPSGIPERFSGSNSGNTATLTISRVEAGDEADYYCQVWDSSSDHPVFGGGTKVTVL | 8.84

meta.source: patent US20260258115A1
